measurement_name: melting point

Solved cases below.
input: Provide measured melting point value, entry: CCCCc1nc2c(N)nc3ccccc3c2n1CCCNC(=S)Nc1ccccc1 [Example 149]
output: 142.8 to 144 °C

input: Output measured melting point for this item: Cc1nc2c(N)nc3ccccc3c2n1CCCNC(=O)OC(C)(C)C [Example 176]
output: 112 to 115 °C

input: Answer with the recorded melting point of Nc1nc2ccccc2c2c1nc(-c1ccccc1)n2CCCCNC(=S)Nc1cccnc1 [Example 14] only.
output: 118 to 120 °C

Others:
input: Please give the documented melting point of COc1ccc(Cc2nc3c(N)nc4ccccc4c3n2CCCCNC(N)=O)cc1 [Example 10]
output: 196 °C (dec.)

input: Tell us which melting point value is on record for CCCCc1nc2c(N)nc3ccccc3c2n1CCCCCCCCNC(=O)Nc1ccccc1 [Example 154]
output: 153 to 155 °C
